# pEC50 annotations
# assay_target: GFRα1-RET (Homo sapiens)
# Construct: expressed in transfected cells; host or cells: MG87 murine fibroblast
# measurement_notes: Luciferase assay: activation of Elk1 signaling in reporter-gene cells expressing GFRα1-RET (MG87 murine fibroblast stably transfected with PathDetect Elk-1, GFRα1, and RET)
# Format: cell-based
# test_conditions: Table 4; MG87 murine fibroblasts with PathDetect Elk-1, GFRα1, RET; 6 concentrations, duplicate, two times independently; agonist/activator activity; read-out: Luciferase Assay EC50
pEC50: −log10 of the molar value.

// known answers, use as guide
- COc1ccc(S(=O)(=O)N2CCN(CC(C)c3ccc(F)cc3)CC2)cc1N1CCN(C(=O)c2ccc(F)cc2Cl)CC1 (racemic): > 6.00
- COc1ccc(S(=O)(=O)N2CCCC(c3ccccc3)C2)cc1N1CCN(C(=O)c2ccc(F)cc2Cl)CC1 (stereo not drawn): 5.30 to 6.00
- Cc1cc(S(=O)(=O)N2CCC(c3ccc(F)cc3)CC2)cc(N2CCN(C(=O)c3ccc(F)cc3Cl)CC2)c1O: > 6.00
- COc1ccc(S(=O)(=O)N(C)CC2CCCCC2)cc1N1CCN(C(=O)c2ccc(F)cc2Cl)CC1: 5.00 to 5.30
- COc1ccc(S(=O)(=O)N2CCC(CCc3ccccc3)CC2)cc1N1CCN(C(=O)c2ccc(F)cc2Cl)CC1: > 6.00
- CCN(CC)S(=O)(=O)c1cnc(OC)c(N2CCN(C(=O)c3ccc(F)cc3C(F)(F)F)CC2)c1: 4.30 to 5.00
- COc1ccc(S(=O)(=O)N2CCC(Cc3ccccc3)CC2)cc1N1CCN(C(=O)c2ccccc2C(F)F)CC1: 5.30 to 6.00
- CCCN(C)S(=O)(=O)c1ccc(O)c(N2CCN(C(=O)c3ccc(F)cc3C(F)(F)F)CC2)c1: 5.00 to 5.30
- CCCN(C)S(=O)(=O)c1ccc(OCCO)c(N2CCN(C(=O)c3ccc(F)cc3C(F)(F)F)CC2)c1: 4.30 to 5.00
- COc1ccc(S(=O)(=O)N2CCC(O)(Cc3ccccc3)CC2)cc1N1CCN(C(=O)c2ccc(F)cc2Cl)CC1: 5.00 to 5.30

# input Data request, read-out pEC50, for CCCN(C)S(=O)(=O)c1ccc(F)c(N2CCN(C(=O)c3ccc(F)cc3C(F)(F)F)CC2)c1
# output 5.30 to 6.00

# input Param item = COc1ccc(S(=O)(=O)N2CC3CCC2C3)cc1N1CCN(C(=O)c2ccc(F)cc2Cl)CC1 (stereo not drawn) ; retrieve measured pEC50.
# output 4.30 to 5.00

# input Query: pEC50; subject: CCN(CC)S(=O)(=O)c1cnc(Cl)c(N2CCN(C(=O)c3ccc(F)cc3C(F)(F)F)CC2)c1
# output 4.30 to 5.00

# input Find the recorded pEC50 belonging to COc1ccc(S(=O)(=O)NC(C)(C)C)cc1N1CCN(C(=O)c2ccc(F)cc2Cl)CC1 and report it.
# output 5.30 to 6.00

# input Please give the measured pEC50 for this compound: CCN(CC)S(=O)(=O)c1ccc(OC)c(N2CCN(C(=O)c3ccc(F)cc3Cl)CC2)c1
# output 5.00 to 5.30

* * *

# assay_target: GFRα1-RET (Homo sapiens, UniProt P56159)
# Construct: expressed in transfected cells; host or cells: MG87 murine fibroblast
# Sequence (P56159 25-429 limits assumed): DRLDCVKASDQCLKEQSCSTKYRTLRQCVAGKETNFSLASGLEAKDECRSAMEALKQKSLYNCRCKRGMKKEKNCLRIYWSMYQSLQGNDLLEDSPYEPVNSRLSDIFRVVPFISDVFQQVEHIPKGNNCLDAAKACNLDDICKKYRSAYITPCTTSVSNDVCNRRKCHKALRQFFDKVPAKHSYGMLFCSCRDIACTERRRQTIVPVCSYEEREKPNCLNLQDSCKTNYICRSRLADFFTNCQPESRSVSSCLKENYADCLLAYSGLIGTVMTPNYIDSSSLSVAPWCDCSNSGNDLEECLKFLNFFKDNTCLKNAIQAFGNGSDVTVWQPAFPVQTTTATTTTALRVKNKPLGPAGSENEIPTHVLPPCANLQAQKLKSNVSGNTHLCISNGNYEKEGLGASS
# Sequence (P07949 29-1114 partner): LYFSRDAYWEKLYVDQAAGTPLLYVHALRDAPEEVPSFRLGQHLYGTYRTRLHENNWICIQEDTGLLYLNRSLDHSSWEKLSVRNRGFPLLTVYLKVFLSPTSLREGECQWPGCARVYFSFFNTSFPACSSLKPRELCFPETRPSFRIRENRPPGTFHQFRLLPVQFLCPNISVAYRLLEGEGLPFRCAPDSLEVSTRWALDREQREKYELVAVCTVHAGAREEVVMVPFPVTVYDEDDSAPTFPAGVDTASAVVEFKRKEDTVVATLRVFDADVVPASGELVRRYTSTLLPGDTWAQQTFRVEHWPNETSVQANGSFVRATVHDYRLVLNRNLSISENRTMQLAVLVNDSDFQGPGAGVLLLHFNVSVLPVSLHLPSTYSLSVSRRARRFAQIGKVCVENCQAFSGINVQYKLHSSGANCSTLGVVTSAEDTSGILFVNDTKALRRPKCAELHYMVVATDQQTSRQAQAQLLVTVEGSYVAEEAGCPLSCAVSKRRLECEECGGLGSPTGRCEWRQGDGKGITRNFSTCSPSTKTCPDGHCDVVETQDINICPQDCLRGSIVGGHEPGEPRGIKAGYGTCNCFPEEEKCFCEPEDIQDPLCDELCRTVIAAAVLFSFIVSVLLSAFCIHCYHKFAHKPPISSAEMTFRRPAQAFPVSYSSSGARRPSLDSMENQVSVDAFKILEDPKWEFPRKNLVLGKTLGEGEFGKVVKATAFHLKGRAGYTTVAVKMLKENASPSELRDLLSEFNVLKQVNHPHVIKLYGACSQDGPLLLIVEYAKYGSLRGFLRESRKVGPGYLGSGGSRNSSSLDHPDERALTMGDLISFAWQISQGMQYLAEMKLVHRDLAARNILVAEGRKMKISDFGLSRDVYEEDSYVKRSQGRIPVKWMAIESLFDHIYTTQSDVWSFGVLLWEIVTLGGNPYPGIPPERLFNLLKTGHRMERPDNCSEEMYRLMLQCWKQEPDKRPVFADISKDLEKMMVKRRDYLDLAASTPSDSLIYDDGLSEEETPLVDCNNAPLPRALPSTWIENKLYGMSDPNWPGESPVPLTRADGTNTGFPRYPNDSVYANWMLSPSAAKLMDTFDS
# measurement_notes: Luciferase assay: activation of Elk1 signaling in reporter-gene cells expressing GFRα1-RET (MG87 murine fibroblast stably transfected with PathDetect Elk-1, GFRα1, and RET)
# Assay type: cell-based
# test_conditions: Table 4; MG87 murine fibroblasts with PathDetect Elk-1, GFRα1, RET; 6 concentrations, duplicate, two times independently; agonist/activator activity; read-out: Luciferase Assay EC50
A collection of molecules and their measured EC50

// worked examples, EC50 included
- CCCN(C)S(=O)(=O)c1ccc(OCCOC)c(N2CCN(C(=O)c3ccc(F)cc3C(F)(F)F)CC2)c1: 5 to 10 µM
- COc1ccc(S(=O)(=O)N2CC3CN(Cc4ccccc4)CC3C2)cc1N1CCN(C(=O)c2ccc(F)cc2Cl)CC1 (stereo not shown): 10 to 50 µM
- COc1ccc(S(=O)(=O)N(C)CCCC(F)(F)F)cc1N1CCN(C(=O)c2ccc(F)cc2Cl)CC1: 10 to 50 µM
- COc1ccc(S(=O)(=O)N2CCC(C(F)(F)F)CC2)cc1N1CCN(C(=O)c2ccc(F)cc2Cl)CC1: 1 to 5 µM
- COc1ccc(S(=O)(=O)N(C)C2CCCC2)cc1N1CCN(C(=O)c2ccc(F)cc2Cl)CC1: 5 to 10 µM

# input Value lookup for EC50; key = COc1ccc(S(=O)(=O)N2CCC(c3ccccc3)C2)cc1N1CCN(C(=O)c2ccc(F)cc2Cl)CC1 (stereo not shown)
# output 1 to 5 µM

# input I would be grateful if you could share the reported EC50 for COc1ccc(S(=O)(=O)N(C)C(C)(C)C)cc1N1CCN(C(=O)c2ccc(F)cc2Cl)CC1 .
# output 5 to 10 µM

meta.source: patent US20260356810A1
